Where do the numbers come from? From patent US20160251440A1.

# subject of test: CXCR4 and CD4 co-expressed on cells (MOLM-13, THP-1, MT-4, PBMC; Jurkat CD4 low) (human, UniProt P61073 1-352; P01730 26-458)
# Sequence (P61073 whole entry, chain 1 of 2, other chains not shown): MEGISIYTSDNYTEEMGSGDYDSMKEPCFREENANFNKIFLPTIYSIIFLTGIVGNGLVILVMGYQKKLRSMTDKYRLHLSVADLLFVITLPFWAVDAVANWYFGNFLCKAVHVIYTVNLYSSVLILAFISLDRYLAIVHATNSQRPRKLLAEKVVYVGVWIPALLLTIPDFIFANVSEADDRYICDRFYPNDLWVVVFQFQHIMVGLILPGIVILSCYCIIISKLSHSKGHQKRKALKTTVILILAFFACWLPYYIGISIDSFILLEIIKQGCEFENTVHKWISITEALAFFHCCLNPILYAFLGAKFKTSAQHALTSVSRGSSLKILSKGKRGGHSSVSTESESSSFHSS
# assay overview: cell-based or functional assay
Listing of recorded IC50, HIV-1 NL4.3 (X4), U87 by entry.
Return type: number; implicit unit nM.

281F12-35GS-03F11 (bispecific antibody, also called CXCR4#2-35GS-CD4#8; CXCR4#2-CD4#8) EVQLVESGGGLVQAGDSLRLSCAASGRAFSRYAMGWFRQAPGKEREFVAAIGWGPSKTNYADSVKGRFTISRDNAKNTVYLQMNTLKPEDTAVYSCAAKFVNTDSTWSRSEMYTYWGQGTQVTVSSGGGGSGGGGSGGGGSGGGGSGGGGSGGGGSGGGGSEVQLVESGGGSVQPGGSLTLSCGTSGRTFNVMGWFRQAPGKEREFVAAVRWSSTGIYYTQYADSVKSRFTISRDNAKNTVYLEMNSLKPEDTAVYYCAADTYNSNPARWDGYDFRGQGTQVTVSS = 2.67

Now look at this one.
# IC50, HIV-1 NL4.3 (X4), U87 (binder: 281F12-9GS-03F11 (bispecific antibody, also called CXCR4#2-9GS-CD4#8) EVQLVESGGGLVQAGDSLRLSCAASGRAFSRYAMGWFRQAPGKEREFVAAIGWGPSKTNYADSVKGRFTISRDNAKNTVYLQMNTLKPEDTAVYSCAAKFVNTDSTWSRSEMYTYWGQGTQVTVSSGGGSGGGGSEVQLVESGGGSVQPGGSLTLSCGTSGRTFNVMGWFRQAPGKEREFVAAVRWSSTGIYYTQYADSVKSRFTISRDNAKNTVYLEMNSLKPEDTAVYYCAADTYNSNPARWDGYDFRGQGTQVTVSS ) is 0.53
